In this section we review reported dCas9 with SSAP activity (normalized) values for a set of molecules.
Test system: gene editing with dCas9
Test: Screen of 322 new SSAP proteins, gene editing activity with dCas9 (Table 5)
Assay type: cell-based
Conditions: normalized
Simply state the number, no unit and no words.

Prompt line: # dCas9 with SSAP activity (normalized) lookup, item SSAP_126: SEQ ID NO: 295; Marispirochaeta aestuarii (protein, listed as Marispirochaeta aestuarii) RTDGTKEAGAAATAPTEGKAPAKAHKPADTIGAMIEKLKPQIERALPKHVTPDRMARMALTAIRNNPKLGQAEAVSLMGSIIQASQLGLEPNTPLGQCYIIPYNSKNGMQAQFQMGYKGIVDLAHRSGQYRQLTAHPVDEADEFRYSYGLNPDLVHVPAEKPSGKITHYYAVYHLTNGGFDFRVWSREKVEAHAKQYSKSFSSGPWQTNFDQMACKTVMIDLLRYAPKSVEIAKATSADNRTHTINPEDPDLNIDTIDGDFELEGEER
Response line: −0.714

Prompt line: # dCas9 with SSAP activity (normalized) lookup, item SSAP_27: SEQ ID NO: 196 (protein) SNNQLSTQQAKRDIAIDTSVWTFQDVKRYFDPQNLLTEKQVGQALSLIKGRNLNPLANEVYIVAYKKKTGGTEFSLIVSKEAFLKRAAQNPNYEGFEAGVVTVDTDGVMHERKGALMLPGDTLVGGWARVYRKNFKVPVEIFVSREEYDKKQSTWNAMPATMIRKTALVNALREAFPEDLGNMYTEDDGGETFDRIKQAEPVESREDVMARKMAQIEQMKQEQAQRQIDTSYPTDDVIDPDDEPAQGELLEDLEY
Response line: −0.675
